System: Respiratory syncytial virus
assay_notes: Antiviral activity against Respiratory syncytial virus long infected in human HeLa cells assessed as reduction of virus-induced cytopathogenicity at 250 uM
Assay type: functional, organism-based
The source made the active and inactive calls. How the calls were made is not given here.
measure: inhibition

Observe how each entry below is paired with its result.
compound="CCOP(=O)(OCC)[C@H]1C[C@H](C(=O)Nc2cccc(C(C)=O)c2)ON1C (mixture of isomers)" result_value=inactive
compound="CCOP(=O)(OCC)[C@H]1C[C@H](C(=O)Nc2ccc(F)cc2F)ON1C (mixture of isomers)" result_value=inactive
compound="CCOP(=O)(OCC)[C@@H]1C[C@H](C(=O)Nc2ccc(F)cc2F)ON1C (mixture of isomers)" result_value=inactive
compound="CCOP(=O)(OCC)[C@H]1C[C@H](C(=O)Nc2cccc(Br)c2)ON1C (racemic)" result_value=inactive
compound="CCOP(=O)(OCC)[C@@H]1C[C@H](C(=O)Nc2cc(OC)c(OC)c(OC)c2)ON1C (racemic)" result_value=inactive
compound="CCOP(=O)(OCC)[C@@H]1C[C@H](C(=O)Nc2cccc(C(C)=O)c2)ON1C (racemic)" result_value=inactive
compound="CCOP(=O)(OCC)[C@H]1C[C@H](C(=O)Nc2ccc(C)cc2)ON1C (relative stereo)" result_value=inactive
compound="CCOP(=O)(OCC)[C@H]1C[C@H](C(=O)Nc2ccc(Br)cc2)ON1C (mixture of isomers)" result_value=inactive

Query string: Which inhibition is reported with Respiratory syncytial virus for this entry: CCOP(=O)(OCC)[C@@H]1C[C@H](C(=O)Nc2cc(OC)c(OC)cc2C#N)ON1C (mixture of isomers) ?
Result string: inactive

Query string: Another compound to look at: CCOP(=O)(OCC)[C@@H]1C[C@H](C(=O)Nc2ccccc2Br)ON1C (mixture of isomers)
Result string: inactive

Query string: Another compound to look at: CCOP(=O)(OCC)[C@@H]1C[C@H](C(=O)Nc2cccc(Cl)c2)ON1C (mixture of isomers)
Result string: inactive

Query string: Another compound to look at: CCOP(=O)(OCC)[C@@H]1C[C@H](C(=O)Nc2ccc(Cl)cc2)ON1C (mixture of isomers)
Result string: inactive

Query string: Another compound to look at: CCOP(=O)(OCC)[C@H]1C[C@H](C(=O)Nc2ccccc2[N+](=O)[O-])ON1C (mixture of isomers)
Result string: inactive

Query string: Another compound to look at: CCOP(=O)(OCC)[C@H]1C[C@H](C(=O)Nc2ccccc2Br)ON1C (mixture of isomers)
Result string: inactive

Query string: Another compound to look at: CCOP(=O)(OCC)[C@H]1C[C@H](C(=O)Nc2ccc(C(C)=O)cc2)ON1C (mixture of isomers)
Result string: inactive

Query string: Another compound to look at: CCOP(=O)(OCC)[C@H]1C[C@H](C(=O)Nc2cccc(OC)c2)ON1C (racemic)
Result string: inactive

Query string: Another compound to look at: CCOP(=O)(OCC)[C@H]1C[C@H](C(=O)Nc2cccc(C)c2)ON1C (racemic)
Result string: inactive

Query string: Another compound to look at: CCOP(=O)(OCC)[C@@H]1C[C@H](C(=O)Nc2ccc(Br)cc2)ON1C (mixture of isomers)
Result string: inactive

Query string: Another compound to look at: CCOP(=O)(OCC)[C@@H]1C[C@H](C(=O)Nc2cccc(OC)c2)ON1C (mixture of isomers)
Result string: inactive

Query string: Another compound to look at: CCOP(=O)(OCC)[C@@H]1C[C@H](C(=O)Nc2cccc(Br)c2)ON1C (mixture of isomers)
Result string: inactive

Query string: Another compound to look at: CCOP(=O)(OCC)[C@@H]1C[C@H](C(=O)Nc2ccccc2F)ON1C (racemic)
Result string: inactive

Query string: Another compound to look at: CCOP(=O)(OCC)[C@@H]1C[C@H](C(=O)Nc2ccc(C(C)=O)cc2)ON1C (racemic)
Result string: inactive

Query string: Another compound to look at: CCOP(=O)(OCC)[C@H]1C[C@H](C(=O)Nc2cc(OC)c(OC)cc2C#N)ON1C (mixture of isomers)
Result string: inactive

Query string: Another compound to look at: CCOP(=O)(OCC)[C@H]1C[C@H](C(=O)Nc2ccc(C#N)cc2)ON1C (racemic)
Result string: inactive

Query string: Another compound to look at: CCOP(=O)(OCC)[C@H]1C[C@H](C(=O)Nc2ccccc2F)ON1C (mixture of isomers)
Result string: inactive
